// reported IC50 for each item listed
# Test system: PC-3 cells
# testProtocol: Antiproliferative activity, Alamar Blue assay, PC-3 cells
# Format: cell-based, human
# testParameters: Homo sapiens, PC-3, PC3 cells, Alamar Blue; read-out: PC3 antiproliferative activity pIC50 (converted)
# number only, unit µM dropped from output

Cc1cc2ccc(C(C)(C#N)C3CCCc4ccccc43)cc2[nH]c1=O (stereo not shown) = 3.98

Give IC50 (PC-3 cells) of the following compound: CCc1cc2ccc(C(C)(C#N)CCOc3ccccc3C#N)cc2[nH]c1=O (stereo not shown)
2.51

Give IC50 (PC-3 cells) of the following compound: CCc1cc2ccc(C(C)(C#N)Cc3cccc(NC)n3)cc2[nH]c1=O (stereo not shown)
3.16

Give IC50 (PC-3 cells) of the following compound: CCc1cc2ccc([C@](C)(C#N)Cc3cccc(/C=C/S(C)(=O)=O)c3)cc2[nH]c1=O (single isomer, unassigned)
0.501

---

# Test system: PC3 cells
# testProtocol: EB1 Comet (microtubule disruption) assay
# Format: cell-based, human
# testParameters: Homo sapiens, PC-3, 1 h, 1 hour treatment, read-out: EB1 pLAC (converted)
metricName: minimal effective concentration (µM)
# number only, unit µM dropped from output

Below, each entry is followed by its recorded minimal effective concentration result.
CCc1cc2ccc(C(C)(C#N)Cc3cccc(N(C)CCc4ccccc4)n3)cc2[nH]c1=O.Cl (centres unmarked) = 3.16
CCc1cc2ccc(C(C)(C#N)Cc3cc(OCCOC)nc(C)n3)cc2[nH]c1=O (centres unmarked) = 1
CCc1cc2ccc(C(C)(C#N)Cc3nc(C)cc(C)n3)cc2[nH]c1=O (centres unmarked) = 1
CCc1cc2ccc(C(C)(C#N)CCOc3ccnc(SC)n3)cc2[nH]c1=O (centres unmarked) = 10

// lookup minimal effective concentration for CCCC(C#N)(Cc1ccccc1)c1ccc2cc(CC)c(=O)[nH]c2c1 (centres unmarked)
10

---

# Tested on: tubulin
# testProtocol: Tubulin polymerization assay
# Type: biochemical
# Parameters: key: a compound showing 0 to 50% inhibition at 20 μM is reported as score 1; Score 2 compounds are defined as compound showing more than 50% inhibition at 20 μM and less than 50% inhibition at 5 μM; a compound showing more than 50% inhibition at 5 μM is reported as score 3
# testParameters: tested at 20 μM and 5 μM
// reported tubulin polymerisation score for each item listed
Enter a number only.

// lookup tubulin polymerisation score for `C#Cc1cccc(C[C@@](C)(C#N)c2ccc3cc(CC)c(=O)[nH]c3c2)c1`
2

// lookup tubulin polymerisation score for CCc1cc2ccc(C(C)(C#N)Cc3cc(C)nc(C#N)c3)cc2[nH]c1=O (centres unmarked)
2

// lookup tubulin polymerisation score for CCc1cc2ccc([C@@](C)(C#N)CCOc3ccccc3)cc2[nH]c1=O (single isomer, unassigned)
2

// lookup tubulin polymerisation score for CCc1cc2ccc(C(C)(C#N)Cc3nc(Cl)cc(N(C)C)n3)cc2[nH]c1=O (centres unmarked)
2

// lookup tubulin polymerisation score for CCc1cc2ccc(C(C)(C#N)Cc3cccc(I)c3)cc2[nH]c1=O (centres unmarked)
2

// lookup tubulin polymerisation score for CCc1cc2ccc(C(C)(C#N)Cc3cccc(C(=O)OC(C)C)c3)cc2[nH]c1=O (centres unmarked)
2

---

# targetUnderTest: Human PARP-1 enzyme (Homo sapiens, UniProt P09874)
# Construct: purchased Trevigen
# Sequence (P09874 whole entry): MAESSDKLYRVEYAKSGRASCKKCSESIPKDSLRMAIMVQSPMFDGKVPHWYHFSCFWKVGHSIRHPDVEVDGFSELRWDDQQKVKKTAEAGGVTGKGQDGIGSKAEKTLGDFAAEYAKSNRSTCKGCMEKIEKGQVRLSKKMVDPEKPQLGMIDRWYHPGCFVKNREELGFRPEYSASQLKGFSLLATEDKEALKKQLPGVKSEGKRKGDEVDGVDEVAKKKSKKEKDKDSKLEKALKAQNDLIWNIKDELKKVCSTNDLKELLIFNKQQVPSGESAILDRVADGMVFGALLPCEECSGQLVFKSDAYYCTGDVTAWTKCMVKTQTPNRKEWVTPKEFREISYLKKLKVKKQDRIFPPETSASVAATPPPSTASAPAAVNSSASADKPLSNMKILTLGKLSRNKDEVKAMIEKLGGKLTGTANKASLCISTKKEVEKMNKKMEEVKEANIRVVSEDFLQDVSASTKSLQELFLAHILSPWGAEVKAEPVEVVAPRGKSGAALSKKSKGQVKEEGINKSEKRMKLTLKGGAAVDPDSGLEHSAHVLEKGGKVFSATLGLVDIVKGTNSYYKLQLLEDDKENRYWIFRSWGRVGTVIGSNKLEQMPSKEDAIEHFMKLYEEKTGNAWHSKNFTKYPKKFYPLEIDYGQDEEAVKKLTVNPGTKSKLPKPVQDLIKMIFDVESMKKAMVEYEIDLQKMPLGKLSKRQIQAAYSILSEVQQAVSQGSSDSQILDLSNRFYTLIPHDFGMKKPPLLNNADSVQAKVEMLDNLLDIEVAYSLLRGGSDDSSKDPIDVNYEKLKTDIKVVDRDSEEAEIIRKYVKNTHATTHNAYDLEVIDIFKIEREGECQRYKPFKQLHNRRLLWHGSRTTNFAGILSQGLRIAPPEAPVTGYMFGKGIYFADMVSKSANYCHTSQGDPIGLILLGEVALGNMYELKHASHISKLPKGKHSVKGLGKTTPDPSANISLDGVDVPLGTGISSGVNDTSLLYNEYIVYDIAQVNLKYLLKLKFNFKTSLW
# testProtocol: In vitro Scintillation Proximity Assay (SPA) for PARP-1 inhibitory activity
# Type: biochemical
# testParameters: read-out: in vitro SPA assay PARP-1 pIC50 (converted)
So basically, if IC50 comes in under 100 nM it's 1.0, and if it's 100 nM or more it's 0.0.

# count of solved cases: 5
CCc1cc2ccc([C@@](C)(C#N)CCOc3ccccc3)cc2[nH]c1=O (single isomer, unassigned) [Compound 150] = 0.0
CCOC(=O)c1cccc(CC(C)(C#N)c2ccc3cc(CC)c(=O)[nH]c3c2)n1 (stereo not drawn) [Compound 215] = 0.0
Cc1cc2ccc([C@](C)(C#N)[C@H]3CCc4ccc(Br)cc43)cc2[nH]c1=O [Compound 407] = 0.0
CCc1cc2ccc(C(C#N)(CC)C3CCc4ccc(OC)cc43)cc2[nH]c1=O (stereo not drawn) [Compound 403] = 0.0
CCc1cc2ccc(C(C)(C#N)Cc3cn4ccccc4n3)cc2[nH]c1=O (stereo not drawn) [Compound 96] = 0.0

Could you please tell me whether IC50 recorded for COc1cc2ccc(C(C)(C#N)Cc3cccc(C#N)n3)cc2[nH]c1=O (stereo not drawn) [Compound 218] is less than 100 nM?
0.0

Could you please tell me whether IC50 recorded for CCC(=O)c1cccc(CC(C)(C#N)c2ccc3cc(C)c(=O)[nH]c3c2)c1 (stereo not drawn) [Compound 173] is less than 100 nM?
0.0

Could you please tell me whether IC50 recorded for CCc1cc2cc(F)c(C(C)(C#N)Cc3cccc(C#N)c3)cc2[nH]c1=O (stereo not drawn) [Compound 175] is less than 100 nM?
0.0

Could you please tell me whether IC50 recorded for CCc1cc2ccc(C(C)(C#N)Cc3ccc(F)c(F)c3)cc2[nH]c1=O (stereo not drawn) [Compound 281] is less than 100 nM?
1.0

Could you please tell me whether IC50 recorded for CCc1cc2ccc(C(C)(C#N)Cc3ccncc3)cc2[nH]c1=O (stereo not drawn) [Compound 98] is less than 100 nM?
0.0

Could you please tell me whether IC50 recorded for CCc1cc2ccc(C(C#N)(CC)C3CCc4ccc(F)cc43)cc2[nH]c1=O (stereo not drawn) [Compound 391] is less than 100 nM?
0.0

Could you please tell me whether IC50 recorded for CCc1cc2ccc(C(C)(C#N)Cc3cccc(OCCCN4CCN(C)CC4)c3)cc2[nH]c1=O (stereo not drawn) [Compound 69] is less than 100 nM?
0.0

---

# Tested on: PC-3 cells
# testProtocol: Antiproliferative activity, Alamar Blue assay, PC-3 cells
# Type: cell-based, human
# testParameters: Homo sapiens, PC-3, PC3 cells, Alamar Blue; read-out: PC3 antiproliferative activity pIC50 (converted)
// reported IC50 for each item listed
# number only, unit nM dropped from output

Below, each entry is followed by its recorded IC50 result.
Cc1cc2ccc(C(C)(C#N)C3CCc4ccccc43)cc2[nH]c1=O (centres unmarked) = 794
CCc1cc2ccc(C(C)(C#N)CCOc3ccccc3F)cc2[nH]c1=O (centres unmarked) = 2000
CCc1cc2ccc(C(C)(C#N)Cc3cccc(NC)c3)cc2[nH]c1=O (centres unmarked) = 1580
CCc1cc2ccc(C(C)(C#N)Cc3cc(Cl)nc(Cl)c3)cc2[nH]c1=O (centres unmarked) = 501
CCc1cc2ccc(C(C)(C#N)CCOc3cccc(C(F)(F)F)c3)cc2[nH]c1=O (centres unmarked) = 3980

// lookup IC50 for CCc1cc2ccc(C(C)(C#N)Cc3nc(Cl)cc(OC)n3)cc2[nH]c1=O (centres unmarked)
251

// lookup IC50 for CCc1cc2ccc(C(C)(C#N)Cc3cc(OC)ccn3)cc2[nH]c1=O (centres unmarked)
10000

// lookup IC50 for CCc1cc2ccc([C@](C)(C#N)CCOc3ccc(C#N)cc3)cc2[nH]c1=O (single isomer, unassigned)
10000

---

// reported IC50 for each item listed
# System: PC-3 cells
# testProtocol: Antiproliferative activity, Alamar Blue assay, PC-3 cells
# Assay type: cell-based, human
# testParameters: Homo sapiens, PC-3, PC3 cells, Alamar Blue; read-out: PC3 antiproliferative activity pIC50 (converted)
# number only, unit µM dropped from output

CCc1cc2ccc(C(C)(C#N)Cc3ccc(F)c(F)c3)cc2[nH]c1=O (centres unmarked) [Compound 281] = 1.58

// lookup IC50 for CCc1cc2ccc(C(C)(C#N)CN3CCC(c4ccccc4)CC3)cc2[nH]c1=O (centres unmarked) [Compound 375]
1

// lookup IC50 for Cc1cc2ccc(C(C)(C#N)Cc3cccc(Oc4ccccc4)c3)cc2[nH]c1=O (centres unmarked) [Compound 305]
3.16

// lookup IC50 for CCc1cc2ccc(C(C)(C#N)Cc3cc(OCCOC)nc(C)n3)cc2[nH]c1=O (centres unmarked) [Compound 363]
5.01

---

# targetUnderTest: TANK-2 enzyme (Homo sapiens)
# Construct: made in house
# Sequence (Q9H2K2 whole entry): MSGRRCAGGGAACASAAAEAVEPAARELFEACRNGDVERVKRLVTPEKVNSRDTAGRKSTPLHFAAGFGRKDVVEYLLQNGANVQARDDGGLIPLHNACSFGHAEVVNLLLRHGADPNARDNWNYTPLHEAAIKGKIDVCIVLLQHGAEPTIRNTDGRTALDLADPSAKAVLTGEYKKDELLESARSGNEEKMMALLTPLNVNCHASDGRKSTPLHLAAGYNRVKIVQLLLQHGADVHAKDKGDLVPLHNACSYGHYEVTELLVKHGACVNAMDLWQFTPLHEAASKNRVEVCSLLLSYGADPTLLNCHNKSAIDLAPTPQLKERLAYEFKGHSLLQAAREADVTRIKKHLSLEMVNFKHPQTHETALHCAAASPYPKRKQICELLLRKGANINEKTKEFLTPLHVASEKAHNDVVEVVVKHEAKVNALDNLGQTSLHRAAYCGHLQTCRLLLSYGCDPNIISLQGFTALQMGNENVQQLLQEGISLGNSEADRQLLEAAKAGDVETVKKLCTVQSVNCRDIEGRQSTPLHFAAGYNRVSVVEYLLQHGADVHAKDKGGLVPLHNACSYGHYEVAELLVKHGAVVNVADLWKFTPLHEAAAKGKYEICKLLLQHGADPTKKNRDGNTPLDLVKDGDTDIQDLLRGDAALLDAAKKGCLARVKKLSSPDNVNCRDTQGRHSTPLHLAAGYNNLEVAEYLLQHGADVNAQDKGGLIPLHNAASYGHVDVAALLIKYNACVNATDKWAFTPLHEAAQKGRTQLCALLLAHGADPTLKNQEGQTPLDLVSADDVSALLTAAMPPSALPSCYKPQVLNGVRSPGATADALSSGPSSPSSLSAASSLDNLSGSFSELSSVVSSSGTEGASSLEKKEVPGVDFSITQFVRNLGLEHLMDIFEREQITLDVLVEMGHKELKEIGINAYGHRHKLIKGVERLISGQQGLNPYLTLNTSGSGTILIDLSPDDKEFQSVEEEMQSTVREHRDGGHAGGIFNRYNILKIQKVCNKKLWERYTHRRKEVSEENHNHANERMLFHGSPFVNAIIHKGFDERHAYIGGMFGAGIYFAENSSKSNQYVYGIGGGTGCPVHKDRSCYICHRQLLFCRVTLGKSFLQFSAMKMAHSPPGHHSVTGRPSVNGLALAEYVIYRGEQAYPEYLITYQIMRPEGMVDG
# testProtocol: In vitro Scintillation Proximity Assay (SPA) for TANK-2 inhibitory activity
# Format: biochemical
# testParameters: read-out: in vitro SPA assay TANK-2 pIC50 (converted)
So basically, if IC50 comes in under 100 nM it's t, and if it's 100 nM or more it's f.

CCc1cc2ccc(C(C)(C#N)Cc3ccccc3OC(F)(F)F)cc2[nH]c1=O (stereo not shown) = f
CCc1cc2ccc(C(C)(C#N)Cc3cccc(C#CCOC)c3)cc2[nH]c1=O (stereo not shown) = f
CCc1cc2ccc(C(C)(C#N)Cc3cnc(OC)nc3OC)cc2[nH]c1=O (stereo not shown) = t
CCc1cc2ccc(C(C)(C#N)CC3CN(C)c4ccccc4O3)cc2[nH]c1=O (stereo not shown) = f
CCc1cc2ccc(C(C)(C#N)Cc3cc(OC)nc(OC)c3)cc2[nH]c1=O (stereo not shown) = f
CCc1cc2ccc(C(C)(C#N)Cc3cccc(Cl)c3Cl)cc2[nH]c1=O (stereo not shown) = t
CCc1cc2ccc(C(C)(C#N)Cc3cccc(Cl)n3)cc2[nH]c1=O (stereo not shown) = f
CCc1cc2ccc(C(C)(C#N)Cc3cc(Cl)nc(Cl)c3)cc2[nH]c1=O (stereo not shown) = f
CCc1cc2ccc(C(C)(C#N)Cc3ccc(C)cc3)cc2[nH]c1=O (stereo not shown) = t
CCc1cc2ccc(C(C)(C#N)Cc3ccc(F)c(F)c3)cc2[nH]c1=O (stereo not shown) = f

Could you please tell me whether IC50 recorded for CCc1cc2ccc([C@](C)(C#N)Cc3cccc(N(C)C)c3)cc2[nH]c1=O (single isomer, unassigned) is less than 100 nM?
f

Could you please tell me whether IC50 recorded for CCc1cc2ccc(C(C)(C#N)Cc3cccc(OCCCN4CCN(C)CC4)c3)cc2[nH]c1=O (stereo not shown) is less than 100 nM?
t

Could you please tell me whether IC50 recorded for CCc1cc2ccc(C(C)(C#N)Cc3cccc(-c4ccc[nH]4)c3)cc2[nH]c1=O (stereo not shown) is less than 100 nM?
f

Could you please tell me whether IC50 recorded for CCc1cc2ccc(C(C)(C#N)Cc3cccc(CN)c3)cc2[nH]c1=O (stereo not shown) is less than 100 nM?
f

Could you please tell me whether IC50 recorded for Cc1cc2ccc(C(C)(C#N)Cc3cccc(OCC4CCOCC4)c3)cc2[nH]c1=O (stereo not shown) is less than 100 nM?
f

Could you please tell me whether IC50 recorded for CCc1cc2ccc(C(C)(C#N)Cc3cccc(N(C)C)n3)cc2[nH]c1=O (stereo not shown) is less than 100 nM?
f

Could you please tell me whether IC50 recorded for CCc1cc2ccc(C(C)(C#N)Cc3c(C)c(C)c(C)c(C)c3C)cc2[nH]c1=O (stereo not shown) is less than 100 nM?
f

Could you please tell me whether IC50 recorded for Cc1cc2ccc(C(C)(C#N)Cc3cccc(Cl)c3)cc2[nH]c1=O (stereo not shown) is less than 100 nM?
t

Could you please tell me whether IC50 recorded for CCc1cc2ccc(C(C)(C#N)Cc3c(Cl)cccc3Br)cc2[nH]c1=O (stereo not shown) is less than 100 nM?
t

Could you please tell me whether IC50 recorded for `Cc1cc2ccc([C@@](C)(C#N)Cc3cccc(C#N)c3)cc2[nH]c1=O` is less than 100 nM?
f

Could you please tell me whether IC50 recorded for Cc1cc2ccc([C@](C)(C#N)C3CCc4cccnc43)cc2[nH]c1=O (single isomer, unassigned) is less than 100 nM?
f
